- assay.target: HDAC8 Cys102Ser/Cys153Ser/Cys244Ser (Homo sapiens, UniProt Q9BY41, C102S/C153S/C244S)
- Construct: made in house
- Sequence (Q9BY41 1-377 C102S/C153S/C244S): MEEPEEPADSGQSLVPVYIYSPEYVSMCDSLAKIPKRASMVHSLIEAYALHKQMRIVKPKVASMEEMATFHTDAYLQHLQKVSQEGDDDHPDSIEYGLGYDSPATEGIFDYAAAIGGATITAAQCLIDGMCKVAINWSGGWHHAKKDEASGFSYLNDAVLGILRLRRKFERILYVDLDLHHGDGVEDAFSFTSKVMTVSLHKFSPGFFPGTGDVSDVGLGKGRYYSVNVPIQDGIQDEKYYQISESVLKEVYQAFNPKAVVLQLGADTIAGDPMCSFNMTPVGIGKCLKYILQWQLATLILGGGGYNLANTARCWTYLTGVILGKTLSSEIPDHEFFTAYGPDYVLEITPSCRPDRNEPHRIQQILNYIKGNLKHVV
- assay.notes: HDAC8 mutant biochemical assay
- run.parameters: read-out: IC50 [μM] @ 100 nM HDAC8: E Cys102Ser/Cys153Ser/Cys244Ser, 1 h preincubation
measured.property: IC50 (µM)

* C[n+]1cncc(I)c1 [F3+] | 26
* C[n+]1cccnc1I [D3+] | 40
* C[n+]1cncc(Br)c1 [F2+] | 87
* C#Cc1c[n+](C)ccn1 [G6+] | 100
* C#Cc1cc[n+](C)cc1 [C6+] | 24

src = paper PMC10788917
